Where do the numbers come from? From patent US8148391B2.

Subject Of Test: c-Met (cytoplasmic domain) (Homo sapiens, UniProt P08581)
Construct: 10 ng/mL c-Met (cytoplasmic domain, Invitrogen Corporation #PV3143); purchased Invitrogen Corporation PV3143
Sequence (P08581 956-1390 limits assumed): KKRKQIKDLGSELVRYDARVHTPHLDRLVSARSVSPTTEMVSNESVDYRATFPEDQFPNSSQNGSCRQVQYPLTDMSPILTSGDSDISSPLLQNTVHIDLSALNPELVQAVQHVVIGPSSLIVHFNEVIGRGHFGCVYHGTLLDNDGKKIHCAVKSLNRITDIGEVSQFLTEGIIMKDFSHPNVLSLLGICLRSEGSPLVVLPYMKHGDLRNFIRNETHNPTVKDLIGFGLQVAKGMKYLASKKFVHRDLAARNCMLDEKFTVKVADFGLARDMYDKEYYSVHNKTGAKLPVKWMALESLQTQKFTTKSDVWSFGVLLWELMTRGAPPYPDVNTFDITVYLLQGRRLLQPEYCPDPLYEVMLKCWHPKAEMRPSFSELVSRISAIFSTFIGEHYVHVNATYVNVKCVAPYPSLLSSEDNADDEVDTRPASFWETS
Protocol Summary: c-Met Kinase Assay (same methods as for ALK, with modifications)
Format: biochemical
Measurement Context: c-Met kinase inhibition, 1 μM ATP; read-out: cMet Activity
pIC50: −log10 of the molar value.
The entries below come with measured pIC50 values attached.

pIC50 for CNC(=O)c1ccccc1Nc1nc(Nc2ccc3c(c2)CC(=O)N(C)CC3)ncc1Cl [Example 1815] ? 6.00 to 7.00

---

Subject Of Test: baculovirus-expressed ALK (Homo sapiens, UniProt Q9UM73)
Construct: host or cells: baculovirus expression system
Sequence (Q9UM73 19-1620): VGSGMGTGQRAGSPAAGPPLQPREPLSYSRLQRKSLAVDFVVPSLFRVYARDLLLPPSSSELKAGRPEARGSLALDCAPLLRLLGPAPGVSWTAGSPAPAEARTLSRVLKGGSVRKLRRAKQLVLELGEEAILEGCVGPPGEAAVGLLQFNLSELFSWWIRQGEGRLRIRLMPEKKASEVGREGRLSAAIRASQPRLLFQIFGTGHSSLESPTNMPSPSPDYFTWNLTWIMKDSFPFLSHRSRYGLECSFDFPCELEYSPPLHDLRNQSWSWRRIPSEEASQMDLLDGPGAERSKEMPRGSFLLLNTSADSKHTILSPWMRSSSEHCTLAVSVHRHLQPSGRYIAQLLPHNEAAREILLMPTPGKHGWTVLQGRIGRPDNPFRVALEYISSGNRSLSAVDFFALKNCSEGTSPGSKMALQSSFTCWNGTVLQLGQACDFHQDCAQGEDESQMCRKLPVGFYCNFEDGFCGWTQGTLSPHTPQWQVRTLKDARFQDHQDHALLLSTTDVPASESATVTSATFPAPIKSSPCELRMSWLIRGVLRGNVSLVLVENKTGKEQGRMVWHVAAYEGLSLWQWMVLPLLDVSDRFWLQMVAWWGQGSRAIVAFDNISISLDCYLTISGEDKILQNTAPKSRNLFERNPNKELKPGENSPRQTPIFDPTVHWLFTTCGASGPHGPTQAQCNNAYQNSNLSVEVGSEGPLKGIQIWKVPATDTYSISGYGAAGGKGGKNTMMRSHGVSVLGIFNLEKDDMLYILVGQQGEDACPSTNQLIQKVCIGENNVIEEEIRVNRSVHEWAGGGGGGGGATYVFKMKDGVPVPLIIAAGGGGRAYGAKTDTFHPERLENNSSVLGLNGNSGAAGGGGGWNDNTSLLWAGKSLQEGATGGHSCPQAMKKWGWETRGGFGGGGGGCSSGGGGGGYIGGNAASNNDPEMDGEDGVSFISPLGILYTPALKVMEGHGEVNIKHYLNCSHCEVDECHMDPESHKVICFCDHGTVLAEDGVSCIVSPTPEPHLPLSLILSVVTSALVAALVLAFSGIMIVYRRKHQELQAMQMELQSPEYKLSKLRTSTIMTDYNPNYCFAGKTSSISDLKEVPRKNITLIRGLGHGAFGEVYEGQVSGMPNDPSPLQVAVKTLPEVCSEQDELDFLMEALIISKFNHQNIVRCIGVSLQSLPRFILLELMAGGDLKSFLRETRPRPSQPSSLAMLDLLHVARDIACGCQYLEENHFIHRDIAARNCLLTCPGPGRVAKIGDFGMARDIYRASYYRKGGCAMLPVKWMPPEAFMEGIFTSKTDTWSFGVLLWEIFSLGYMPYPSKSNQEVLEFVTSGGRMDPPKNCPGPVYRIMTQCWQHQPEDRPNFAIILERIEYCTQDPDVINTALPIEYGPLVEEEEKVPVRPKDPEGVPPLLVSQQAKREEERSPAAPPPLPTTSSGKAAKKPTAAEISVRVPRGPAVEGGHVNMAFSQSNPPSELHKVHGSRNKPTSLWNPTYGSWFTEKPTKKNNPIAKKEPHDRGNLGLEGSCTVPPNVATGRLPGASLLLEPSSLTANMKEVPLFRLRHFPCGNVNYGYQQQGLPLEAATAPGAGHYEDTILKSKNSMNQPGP
Protocol Summary: ALK Kinase Assay (ELISA-type, time-resolved fluorescence)
Type: biochemical
Measurement Context: ALK kinase inhibition, 1 μM ATP (Km level); read-out: ALK Activity
pIC50: −log10 of the molar value.
Readout Kind: pIC50

Known results for molecules:
# Molecule, pIC50
rows = [
    ("C#CCN1CCN(C)c2cc(Nc3ncc(Cl)c(Nc4ccccc4C(=O)NC)n3)ccc2C1", "> 7.00"),
    ("CCN1CCc2ccc(Nc3ncc(C)c(Nc4ccccc4C(=O)NC)n3)cc2CC1", "> 7.00"),
    ("CN1CCCCc2cc(Nc3ncc(Cl)c(N[C@@H]4CCCC[C@H]4NS(C)(=O)=O)n3)ccc21", "> 7.00"),
    ("CNC(=O)c1ccccc1Nc1nc(Nc2ccc3c(c2)C2CCC3CN(C(C)C)C2)ncc1Cl (centres unmarked)", "> 7.00"),
]

pIC50 for "COc1cc(N2CCOCC2)ccc1Nc1nc(Nc2ccc(OC)c3c2N(C)C(=O)CCC3)ncc1Cl" ? > 7.00

pIC50 for "CCN1CCc2ccc(Nc3ncc(Cl)c(NCC(C)(C)NS(C)(=O)=O)n3)cc2CC1" ? 6.00 to 7.00

pIC50 for "CNC(=O)c1cccc(Cl)c1Nc1nc(Nc2ccc3c(c2)CCCC(=O)N3CCOC)ncc1Cl" ? 5.00 to 6.00

pIC50 for "Cn1ccnc1-c1ccccc1Nc1nc(Nc2ccc3c(c2)CCC(F)(F)CC3)ncc1Cl" ? 6.00 to 7.00
